METHOD_DESCRIPTION: in vivo
MEASUREMENT_PARAMETERS: both, SD, rat, iv, 0.3 mg/kg
Residues, ends and D or L forms follow the SMILES beside them.

COMPOUND: CC(=O)N[C@H](C(=O)N[C@@H](CO)C(=O)N[C@@H](CCCNC(=N)N)C(=O)N[C@@H](CCCNC(=N)N)C(=O)N[C@@H](CCCNC(=N)N)C(N)=O)C(C)C [CN-105, Ac-VSRRR-NH2] (Ac-VSRRR-NH2)
UNITS_OF_MEASURE: L/kg
Vd: 0.342

* * *

METHOD_DESCRIPTION: in vivo
MEASUREMENT_PARAMETERS: both, SD, rat, iv, 3 mg/kg
Residues, ends and D or L forms follow the SMILES beside them.

COMPOUND: CC(=O)N[C@H](C(=O)N[C@@H](CO)C(=O)N[C@@H](CCCNC(=N)N)C(=O)N[C@@H](CCCNC(=N)N)C(=O)N[C@@H](CCCNC(=N)N)C(N)=O)C(C)C [CN-105, Ac-VSRRR-NH2] (Ac-VSRRR-NH2)
UNITS_OF_MEASURE: ng·h/mL
AUC(0-t): 5920
